TARGET: wild-type human ALK protein (cytoplasmic domain, amino acid 1058-1620, N-terminal GST-fusion) (Homo sapiens, UniProt Q9UM73)
Construct: The cytoplasmic domain (amino acid 1058-1620) of wild-type human ALK protein; GST (N)
Sequence (Q9UM73 1058-1620): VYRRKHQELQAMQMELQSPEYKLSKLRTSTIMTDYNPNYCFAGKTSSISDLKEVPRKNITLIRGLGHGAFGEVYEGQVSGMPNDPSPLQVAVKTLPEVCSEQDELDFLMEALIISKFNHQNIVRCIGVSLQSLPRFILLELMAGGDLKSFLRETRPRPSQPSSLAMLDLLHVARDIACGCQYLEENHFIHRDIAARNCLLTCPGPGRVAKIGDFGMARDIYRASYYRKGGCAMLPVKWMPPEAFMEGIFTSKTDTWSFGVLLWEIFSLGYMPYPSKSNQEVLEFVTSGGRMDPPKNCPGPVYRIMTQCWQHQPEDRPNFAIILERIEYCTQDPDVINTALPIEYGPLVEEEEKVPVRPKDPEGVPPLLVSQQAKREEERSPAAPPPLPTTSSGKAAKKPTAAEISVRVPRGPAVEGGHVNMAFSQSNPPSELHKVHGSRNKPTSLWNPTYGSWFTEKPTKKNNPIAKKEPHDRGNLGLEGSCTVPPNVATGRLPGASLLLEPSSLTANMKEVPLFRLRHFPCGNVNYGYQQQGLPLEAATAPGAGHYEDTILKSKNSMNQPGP
EXPERIMENT_SUMMARY: Enzymatic inhibition assay (time-resolved fluorescence, peptide substrate phosphorylation)
MEASUREMENT_SETUP: ATP 100 μM, 30 min pre-incubation, 90 min reaction, read-out: WT IC50
Structures can show the parent of a compound that is named as a salt.
MEASURE: IC50 (nM)

Some compounds with recorded IC50:
* CC(C)Oc1c(N2CCN(C3COC3)CC2)cc2c(c1F)c(=O)c1c3ccc(C#N)cc3[nH]c1n2C(C)C | 4.3
* CC(C)Oc1c(N2CCN(C3CCOCC3)CC2)cc2c(c1F)c(=O)c1c3ccc(C#N)cc3[nH]c1n2C(C)C | 1.5
* COc1c(N2CCN(C3COC3)CC2)cc2c(c1F)c(=O)c1c3ccc(C#N)cc3[nH]c1n2C(C)C | 5.4

(A) COc1c(N2CCN(C3CCOCC3)CC2)cc2c(c1F)c(=O)c1c3ccc(C#N)cc3[nH]c1n2C(C)C
(B) CC(C)Oc1cc2c(=O)c3c4ccc(C#N)cc4[nH]c3n(C(C)C)c2c(F)c1N1C[C@@H](C)N(C)[C@@H](C)C1 [compound 11, (TFA salt)]
(C) CC(C)Oc1c(N2C[C@@H](C)N(C)[C@@H](C)C2)cc2c(c1F)c(=O)c1c3ccc(C#N)cc3[nH]c1n2C(C)C
(D) CC(C)Oc1c(N2CCC(N3CCOCC3)CC2)cc2c(c1F)c(=O)c1c3ccc(C#N)cc3[nH]c1n2C(C)C
### Prompt List by increasing IC50. Reply format: the labels, ordered as requested.
### Response C, A, D, B

Reference source for all entries: patent US20210087188A1
